Test system: MDA-MB-435
Assay: NCI tumour cell line growth inhibition, 48 h
Readings of TGI for the listed compounds

# COMPOUND, EXPERIMENTAL_TARGET, TGI
rows = [
    ("O=C1/C(=C\\c2ccccc2)CN(C(=O)c2ccccc2)C/C1=C\\c1ccccc1", "MDA-MB-435", "5 µM"),
    ("Cn1c(NCC(CN2CCCC2)OC(=O)c2ccccc2)cc(=O)n(C)c1=O (stereo not given)", "MDA-MB-435", "> 100 µM"),
    ("CC[C@@H]1CC[C@@H]2[C@H](CC[C@]3(C)[C@@H](OC(C)=O)CC[C@@H]23)[C@H]1C(=O)OC", "MDA-MB-435", "41.9 µM"),
]

Quick one: give measured TGI for "O=C1/C(=C/c2ccc(Cl)cc2)N=C(c2ccccc2)N1/N=C/c1ccccc1O" > 100 µM

Quick one: give measured TGI for "NCCCn1c2c(c3ccc([N+](=O)[O-])cc3c1=O)C(=O)c1cc(F)ccc1-2" 0.923 µM

----------
Test system: A498 renal
Experiment: NCI tumour cell line growth inhibition, 48 h; in the data active = GI50 below about 0.43 µM; inactive = the rest
Tick one outcome: class 1 (active), class 0 (inactive)

# COMPOUND, CLASSIFICATION
records = [
    ("O=C(/C=C/c1nnc2n(Cc3ccccc3)c(=O)c3c4c(sc3n12)CCCC4)c1ccccc1", "class 0"),
    ("C=C(CN1CCN(c2ccccc2C(F)(F)F)CC1)c1ccc(C(=O)Nc2ccccc2N)cc1", "class 0"),
    ("Brc1ccc(Nc2nc3ccccc3nc2Nc2ccc(Br)cc2)cc1", "class 1"),
    ("O=C1c2cccnc2C(=O)c2c1c(C(=O)OCCc1ccccn1)c1ccccn21", "class 1"),
    ("Cc1ccc(NC(=O)c2nc(S(C)(=O)=O)oc2-c2ccc(F)cc2)cc1Nc1ccc2ncn(C)c(=O)c2c1", "class 0"),
]

# lookup: test call for "CCCCCCc1cc2cc(-c3csc(/C=C/c4ccccc4)n3)c(=O)oc2cc1O" class 0

# lookup: test call for "O=c1[nH]c2ccccc2n2cc3ccccc3c12" class 0

# lookup: test call for "NCCCNc1nc2ccc(Cl)cc2c2c(=O)c3cc(F)ccc3sc12" class 0

----------
System: TK-10 renal
Experiment: NCI tumour cell line growth inhibition, 48 h
Readings of TGI for the listed molecules

# MOLECULE, TGI
measured = [
    ("CCOC(=O)C1=CNC(C(=O)OCC)C1c1cccn1-c1ccccc1 (stereo not drawn)", "> 100 µM"),
    ("O=C1NC(=O)C2C1C1C=C3c4ccccc4N(c4ccccc4)C32[C@H]2C(=O)NC(=O)[C@@H]12 (stereo partly drawn)", "> 100 µM"),
]

Here is another molecule to look at.
Quick one: give measured TGI for CC(=O)OCC1OC([Se-])C(OC(C)=O)C(OC(C)=O)C1OC(C)=O.N#CCC[PH+](CCC#N)CCC#N.[Au+] (stereo not drawn) 46.9 µM

----------
Test system: SN12C renal
Assay: NCI tumour cell line growth inhibition, 48 h; in the data active = GI50 below about 0.43 µM; inactive = the rest
Tick one outcome: TRUE = active, FALSE = inactive

# COMPOUND, CLASSIFICATION
rows = [
    ("O=C(c1cccs1)c1nc2cc(Cl)ccc2[n+]([O-])c1C(F)(F)F", "FALSE"),
    ("CCCOc1ccc(/C=N/Nc2cc(C)nc3ccc(Cl)cc23)cc1", "FALSE"),
    ("O=c1[nH]c2ccccc2n2cc3ccccc3c12", "FALSE"),
    ("O=C1/C(=C\\c2ccccc2)CN(C(=O)c2ccccc2)C/C1=C\\c1ccccc1", "FALSE"),
    ("NC(=N\\N=C/c1ccc(Cl)cc1Cl)/C(N)=N\\N=C/c1ccc(Cl)cc1Cl", "FALSE"),
]

# lookup: test call for CCN(CC)CC(O)COc1c(Br)c(Br)c(Br)c2c1OC(C)(C)C2 (stereo not given) FALSE

# lookup: test call for O=c1[nH]c(F)nc2c1ncn2C1OC(CO)C(O)C1O (stereo not given) FALSE

# lookup: test call for "CCOC(=O)[C@@H](C)C[C@H](Cc1ccccc1)NC(=O)c1csc([C@@H](C[C@H](C(C)C)N(C)C(=O)[C@@H](NC(=O)[C@H]2C[C@H](O)CCN2C)C(C)C)OC(C)=O)n1" TRUE

# lookup: test call for "O=C1NC(=O)C(c2ccccc2)=C1Nc1ccccc1" FALSE

# lookup: test call for "O=C(O)c1ccc(C(=O)O)c(C(=O)O)c1.[NH-]C1CCCCC1[NH-].[Pt+2]" FALSE

# lookup: test call for "COc1ncc(-c2ccc3nccc(C#CCN4CCN(S(C)(=O)=O)CC4)c3c2)cc1NS(=O)(=O)c1ccc(F)cc1F" TRUE

# lookup: test call for "O=C(Nc1ccc(I)cc1)c1cccc([N+](=O)[O-])c1O" FALSE

----------
Tested on: OVCAR-4 ovarian
Test: NCI tumour cell line growth inhibition, 48 h
Readings of GI50 for the listed molecules

Field: example entries. Status: answers known.
# MOLECULE, EXPERIMENTAL_RESULT
rows = [
    ("Oc1ccc(Cc2ccc(O)c(C3CC(c4ccc(Cl)cc4)=NN3)c2)cc1C1CC(c2ccc(Cl)cc2)=NN1 (stereo not given)", "2.97 µM"),
    ("Brc1ccc(Nc2nc3ccccc3nc2Nc2ccc(Br)cc2)cc1", "1.25 µM"),
    ("O=c1[nH]c2ccccc2n2cc3ccccc3c12", "7.2 µM"),
    ("Cn1c(NCC(CN2CCCC2)OC(=O)c2ccccc2)cc(=O)n(C)c1=O (stereo not given)", "> 100 µM"),
]

Quick one: give measured GI50 for "O=C([O-])CCc1ccccc1.O=C([O-])CCc1ccccc1.O=C([O-])CCc1ccccc1.O=C([O-])CCc1ccccc1.[Mo+2].[Mo+2]" > 100 µM

----------
System: DU-145 prostate
Test: NCI tumour cell line growth inhibition, 48 h
QUANTITY_MEASURED: TGI

# COMPOUND, QUANTITY_MEASURED, EXPERIMENTAL_RESULT
measured = [
    ("CCCCCCCCCCCCCCCC(=O)Nc1ccn(C2CCC(COP(=O)(O)OCC3OC(n4cc(F)c(=O)[nH]c4=O)CC3OC(C)=O)O2)c(=O)n1 (stereo not drawn)", "TGI", "> 100 µM"),
]

Quick one: give measured TGI for "O=C(O)c1ccc(Oc2nc3ccccc3s2)cc1" > 100 µM

Quick one: give measured TGI for "N#C/C(=C\c1ccc(F)cc1)n1nc2cccc(F)c2n1" > 100 µM

Quick one: give measured TGI for O=C(/C=C/c1ccc(O)c(O)c1)NC(COC(=O)/C=C/c1ccc(O)c(O)c1)C(=O)O (stereo not drawn) > 100 µM

----------
Tested on: A549 NSCLC
Test: NCI tumour cell line growth inhibition, 48 h
Readings of TGI for the listed compounds

Field: example entries. Status: answers known.
# COMPOUND, EXPERIMENTAL_RESULT
measured = [
    ("O=C(c1ccccc1)C(Nc1ccc2ccccc2c1)c1ccccc1 (stereo unspecified)", "> 100 µM"),
    ("Cn1c2cc([N+](=O)[O-])ccc2c(=O)c2c(O)cc3c(c21)C=CC(C)(C)O3", "> 100 µM"),
    ("Cc1cccc2c1c(=O)c1c(O)cc3c(c1n2C)C=CC(C)(C)O3", "> 100 µM"),
    ("Cc1[nH]c2nc3c(ncn3COCCO)c(=O)n2c1C(c1ccccc1)(c1ccccc1)c1ccccc1", "40.5 µM"),
    ("CCCn1c(=O)c2nn3c(=O)n(CCC)c(=O)c3nn2c1=O", "> 100 µM"),
    ("NC1=NC2=C(CCCC2)C(c2cccs2)S1 (stereo unspecified)", "> 100 µM"),
    ("CCC(C)CC(C)C(=O)c1c(O)ccn(O)c1=O (stereo unspecified)", "36.3 µM"),
    ("NS(=O)(=O)c1ccc(N=C2C(=O)Nc3ccccc32)cc1", "> 100 µM"),
    ("C=C1CC(C)(COc2cc(=O)oc3ccccc23)OC1=O (stereo unspecified)", "28.2 µM"),
    ("O=P(CCOc1ccccc1OCCP(=O)(c1ccccc1)c1ccc2c(c1)OCCOCCOCCOCCO2)(c1ccccc1)c1ccc2c(c1)OCCOCCOCCOCCO2 (stereo unspecified)", "> 100 µM"),
]

Quick one: give measured TGI for CCOC(=O)C1=CNC(C(=O)OCC)C1c1cccn1-c1ccccc1 (stereo unspecified) > 100 µM

Quick one: give measured TGI for "CC(C)(Oc1ccc2c(=O)cc(-c3ccccc3)oc2c1)C(=O)N1CCN(c2ccccc2)CC1" > 10 µM

Quick one: give measured TGI for [N-]=[N+]=CC(=O)OCC1NC(=O)C(COC(=O)C=[N+]=[N-])NC1=O (stereo unspecified) > 100 µM

Quick one: give measured TGI for "O=C1NC(=O)C(c2ccccc2)=C1Nc1ccccc1" > 25 µM

Quick one: give measured TGI for "CC(=O)Oc1c(Br)ccc2cc(C(Br)Br)c(C(=O)c3ccccc3)nc12" 43.4 µM

Quick one: give measured TGI for "C=C(CCC/C(C)=C/C=C/[C@H](C)CCCc1ccoc1)C[C@@H]1OC(=O)[C@H](C)[C@@H]1O" 15.2 µM

Quick one: give measured TGI for "CC(C)OCc1cc(CN2CCN(c3cccc(Cl)c3)CC2)c(O)c2ncccc12" 11.9 µM

Quick one: give measured TGI for C=CC(OC(=O)C(C)C)c1ccc(OC(=O)C(C)C)cc1 (stereo unspecified) 36.9 µM

Quick one: give measured TGI for "O=C(NCCc1ccccc1)c1cc(/C=C/c2cc(O)ccc2O)ccc1O" > 41.1 µM

Quick one: give measured TGI for COC(=O)CC(CNC(=O)OCc1ccccc1)OCc1ccc(OC)cc1 (stereo unspecified) > 100 µM

Quick one: give measured TGI for "Oc1c(Cl)c(Cl)c(O)c(CCNc2nccs2)c1Cl" 49.8 µM

Cited source: PubChem BioAssay (NCI)
